- Tested on: L5178Y mouse lymphoma cells
- protocol.text: Alkaline Comet assay
- Assay type: cell-based
- settings: 4-h treatment, absence of S9
test.readout: lowest concentration that induced significant DNA damage (mM)
Dear colleague, please return just the value in mM, with no unit written.

Previously resolved entries follow.
API: value(readout= lowest concentration that induced significant DNA damage, system= L5178Y mouse lymphoma cells, query= CC1(C)CC(O)CC(C)(C)N1[O] [4-hydroxy-TEMPO] ) 4

Enter reported lowest concentration that induced significant DNA damage observed with L5178Y mouse lymphoma cells for CC1(C)CCCC(C)(C)N1[O] 2

Fill in the recorded lowest concentration that induced significant DNA damage for this molecule, with L5178Y mouse lymphoma cells as test system: CC1(C)CC(=O)CC(C)(C)N1[O] 3

Lab note: next molecule to report on.
Notebook: pull reported lowest concentration that induced significant DNA damage for L5178Y mouse lymphoma cells, entry COC1CC(C)(C)N([O])C(C)(C)C1 6

* * *

- Test system: L5178Y mouse lymphoma cells
- protocol.text: Alkaline Comet assay
- Format: cell-based
- settings: lower limit of the 10% BMD, Hill model of PROAST, %DNA in tail data, without S9
BMDL10, Comet assay: recorded values
Respond using a number only.

In the examples that follow, each entry is paired with its recorded BMDL10, Comet assay.
Sample CC1(C)CC(O)CC(C)(C)N1[O] [4-hydroxy-TEMPO] — what was its BMDL10, Comet assay? 1.612

Quick check: BMDL10, Comet assay of CC1(C)CCCC(C)(C)N1[O] ? 0.454

Which BMDL10, Comet assay is listed for COC1CC(C)(C)N([O])C(C)(C)C1 ? 3.358

Next up:
What value of measured BMDL10, Comet assay is listed for CC1(C)CC(=O)CC(C)(C)N1[O] ? 1.114

* * *

- Test system: thymidine kinase (Tk) gene of the L5178Y/Tk+/− −3.7.2C mouse lymphoma cell line
- protocol.text: Mouse lymphoma assay
- Assay type: cell-based
- settings: lower limit of the 10% BMD, Hill model of PROAST, MF data
Overview of reported BMDL10, MLA with S9 across a group of compounds:
Output spec: single numeric token, no unit.

Known results for compounds:
What value of BMDL10, MLA with S9 has been reported for the following compound? CC1(C)CC(=O)CC(C)(C)N1[O] 0.058

# query: BMDL10, MLA with S9 of entry CC1(C)CC(O)CC(C)(C)N1[O] [4-hydroxy-TEMPO] 1.024

Recorded BMDL10, MLA with S9 of COC1CC(C)(C)N([O])C(C)(C)C1 , please. 0.770

Consider the record given below.
Look up BMDL10, MLA with S9 for this compound: CC1(C)CCCC(C)(C)N1[O] 0.257

* * *

- Test system: thymidine kinase (Tk) gene of the L5178Y/Tk+/− −3.7.2C mouse lymphoma cell line
- protocol.text: Mouse lymphoma assay
- Type: cell-based
- settings: potency ranking by BMDL10, 1 = most potent
Each entry below carries its reported Ranking, MLA without S9.

Record CC1(C)CCCC(C)(C)N1[O] [TEMPO, 2,2,6,6-tetramethylphiperidine-1-oxyl] : what is its Ranking, MLA without S9 with thymidine kinase (Tk) gene of the L5178Y/Tk+/− −3.7.2C mouse lymphoma cell line? 3

Please state recorded Ranking, MLA without S9 (tested on thymidine kinase (Tk) gene of the L5178Y/Tk+/− −3.7.2C mouse lymphoma cell line) of CC1(C)CC(=O)CC(C)(C)N1[O] [4-oxo-TEMPO] 1

// lookup Ranking, MLA without S9 | system=thymidine kinase (Tk) gene of the L5178Y/Tk+/− −3.7.2C mouse lymphoma cell line | key= CC1(C)CC(O)CC(C)(C)N1[O] [4-hydroxy-TEMPO] 4

Below: the item to evaluate.
Hi! What's the reported Ranking, MLA without S9 for COC1CC(C)(C)N([O])C(C)(C)C1 [4-methoxy-TEMPO] on thymidine kinase (Tk) gene of the L5178Y/Tk+/− −3.7.2C mouse lymphoma cell line? 2

* * *

- System: L5178Y mouse lymphoma cells
- protocol.text: Alkaline Comet assay
- Assay type: cell-based
- settings: 4-h treatment, absence of S9, background approximately 5%
test.readout: highest percentage of DNA in tail (%)
Express the result in % but write the number alone.

Answered examples (3):
Look up highest percentage of DNA in tail: CC1(C)CCCC(C)(C)N1[O] [TEMPO, 2,2,6,6-tetramethylphiperidine-1-oxyl] 28

Looking for the measured highest percentage of DNA in tail of CC1(C)CC(O)CC(C)(C)N1[O] [4-hydroxy-TEMPO] , can you help? 21

For CC1(C)CC(=O)CC(C)(C)N1[O] [4-oxo-TEMPO] , what is its reported highest percentage of DNA in tail? 14

Continuing:
Report highest percentage of DNA in tail for COC1CC(C)(C)N([O])C(C)(C)C1 [4-methoxy-TEMPO] please. 13

* * *

- System: thymidine kinase (Tk) gene of the L5178Y/Tk+/− −3.7.2C mouse lymphoma cell line
- protocol.text: Mouse lymphoma assay
- Format: cell-based
- settings: lower limit of the 10% BMD, Hill model of PROAST, MF data
test.readout: BMDL10, MLA without S9

Returns the measured BMDL10, MLA without S9 for the input compound. Input: COC1CC(C)(C)N([O])C(C)(C)C1 0.756

Give the measured BMDL10, MLA without S9 of CC1(C)CC(O)CC(C)(C)N1[O] [4-hydroxy-TEMPO] . 1.300

Further cases:
Need BMDL10, MLA without S9, item CC1(C)CC(=O)CC(C)(C)N1[O] 0.661

Reported BMDL10, MLA without S9, compound CC1(C)CCCC(C)(C)N1[O] : ____ 0.981
